- System: CD2F1 mice, L1210 leukemia ip, survival T/C
- assay.comment: NCI In Vivo Anticancer Drug Screen. Data for tumor model L1210 Leukemia (intraperitoneal) in CD2F1 (CDF1) mice
- settings: endpoint: mean survival time; dose: 200.0 mg/kg/injection; schedule: Q01DX009 (ip); vehicle: saline with Tween-80; higher = longer survival
Inconclusive results and toxic doses are left out.

compound | T/C
CC(C)(C)c1ccc(OS(=O)(=O)c2cccc([N+](=O)[O-])c2)cc1 | 102 % of control
CC(C)(C)ONC(=O)c1ccccc1Sc1ccccc1 | 98 % of control
COC(CCN1C(=O)c2ccccc2C1=O)C(Br)C(=O)O (centres undefined) | 92 % of control
Cn1cnc2ccc(Cl)cc21 | 95 % of control
CC12CCCCC1=CC(=O)CC2 (centres undefined) | 102 % of control
N#C/C(=N\Nc1ccc(S(=O)(=O)O)cc1)C(N)=O | 91 % of control
CCOC(=O)/C=C/C1=CCCCC1 | 108 % of control
COc1cc(Cl)cc(OC)c1 | 104 % of control
COc1ccc(N=C/C=C/c2ccccc2)cc1 | 89 % of control
Clc1ccc(OCc2sc3ccc(Cl)cc3c2CN2CCOCC2)cc1 | 101 % of control
COc1ccccc1N/N=C1/CCCNC1=O | 101 % of control
COc1ccc(NC(=O)C(c2ccccc2)c2ccccc2)cc1 | 102 % of control
CC(=O)CC(C)=Nc1ccc([N+](=O)[O-])cc1 | 93 % of control
CC(C)c1cc2c(cc1O)C1(C)CCCC(C)(C(=O)O)C1CC2 (centres undefined) | 102 % of control
[Cl][Pt][Cl].c1ccc2[nH]c(C3CCCC[N-]3)nc2c1 (centres undefined) | 91 % of control
COC(=O)NS(=O)(=O)Nc1ccccc1 | 93 % of control
CCOC(=O)C(=NN)C(=O)OCC | 101 % of control
CCC(CC)C(O)C(C)C(C)O (centres undefined) | 91 % of control
CC(N)(CCOCc1ccccc1)C(=O)O (centres undefined) | 101 % of control
CCCCCCCCCCCCCCBr | 96 % of control
CCCCCC(C)C(C)=O (centres undefined) | 106 % of control
O=C(CNC(=O)NCc1ccco1)NNC(=O)Nc1ccc(F)c(Cl)c1 | 88 % of control
CC(=O)OC1CCCCC1C (centres undefined) | 100 % of control
O=C1N=C(Oc2ccccc2)SC1=O | 90 % of control
CC(c1ccccc1)n1ccnc1CO (centres undefined) | 98 % of control
O=C1CSC(=S)N1c1cccc(C(F)(F)F)c1 | 112 % of control
CCOC(=O)C(OCC)c1ccccc1 (centres undefined) | 101 % of control
CC(C)CNC(=O)Nc1ccccc1C(F)(F)F | 98 % of control
Cc1ccc(C2=NNc3n[nH]c(=S)n3N2)cc1 | 96 % of control

* * *

- Tested on: CD2F1 mice, L1210 leukemia ip, survival T/C
- assay.comment: NCI In Vivo Anticancer Drug Screen. Data for tumor model L1210 Leukemia (intraperitoneal) in CD2F1 (CDF1) mice
- settings: endpoint: mean survival time; dose: 12.5 mg/kg/injection; schedule: Q01DX001 (ip); vehicle: saline with Tween-80; higher = longer survival
Toxic doses and inconclusive results are not listed.
Listed here are molecules together with their documented T/C.

molecule | target.or.system | T/C
CC1C(C(=O)c2ccccc2)C(c2ccccc2)OP1(c1ccccc1)(c1ccccc1)c1ccccc1 (centres undefined) | CD2F1 mice, L1210 leukemia ip, survival T/C | 96 % of control
N#CC1(C#N)OC(C#N)(C#N)c2ccccc21 | CD2F1 mice, L1210 leukemia ip, survival T/C | 98 % of control
CC1=C(C)CC([P+](c2ccccc2)(c2ccccc2)c2ccccc2)CC1 (centres undefined) | CD2F1 mice, L1210 leukemia ip, survival T/C | 90 % of control
COc1cc(OC)c(/C=C/c2cc3c4ccccc4ccc3[n+](C)c2)c(OC)c1 | CD2F1 mice, L1210 leukemia ip, survival T/C | 104 % of control
